Where do the numbers come from? From patent US20070117743A1.

# System: LoVo
# assayProcedure: SRB colorimetric assay of cell growth and viability, LoVo
# Type: cell-based, human
# conditionNotes: 48 hours exposure, SRB
assayEndpoint: GI50 (nM)
Give a bare numeral; the unit nM is implied.

Problem: Please supply the value of reported GI50 for the item C/C=C1\NC(=O)[C@H](Cc2ccc(Cl)c(Cl)c2)NC(=O)[C@@H](C(C)C)NC(=O)[C@@H]([C@@H](C)CC)NC(=O)[C@H](NC(=O)[C@H](NC(=O)[C@H](CCCN)NC(=O)[C@H]2CCCN2C(=O)[C@H](NC(=O)[C@@H](NC(=O)[C@@H](NC(=O)[C@H](NC(=O)CC[C@@H](C)CC)C(C)C)[C@@H](C)O)C(C)C)C(C)C)[C@@H](C)CC)[C@@H](C)OC(=O)[C@H](C(C)C)NC1=O [Compound 70, [Phe(3,4-Cl2)^3, (4S)-MeHex^14]-KF]
Result: 68.5
